Assay: Plasma pharmacokinetics of TSU-68
Format: in vivo, human (Japanese patients)
Conditions: human, plasma, oral, 800 mg/m2, AUC0–t, 800 mg/m^2, Day 8, 5 patients, plasma
Parameter Measured: AUC(0-t) (ng·h/mL)
Entry rule: numbers only, all in ng·h/mL.

Noted for Cc1[nH]c(/C=C2\C(=O)Nc3ccccc32)c(C)c1CCC(=O)O [TSU-68] : its AUC(0-t) reads 44600

====

Assay: Plasma pharmacokinetics of TSU-68
Assay type: in vivo, human (Japanese patients)
Conditions: human, plasma, oral, 200 mg/m2, Tmax, 200 mg/m^2, Day 8, 3 patients, plasma
Parameter Measured: Tmax
A complete answer gives the number and then names the unit.

Noted for Cc1[nH]c(/C=C2\C(=O)Nc3ccccc32)c(C)c1CCC(=O)O : its Tmax reads 1.7 h
